System name: NK2 (Homo sapiens, UniProt P21452)
Sequence (P21452 whole entry): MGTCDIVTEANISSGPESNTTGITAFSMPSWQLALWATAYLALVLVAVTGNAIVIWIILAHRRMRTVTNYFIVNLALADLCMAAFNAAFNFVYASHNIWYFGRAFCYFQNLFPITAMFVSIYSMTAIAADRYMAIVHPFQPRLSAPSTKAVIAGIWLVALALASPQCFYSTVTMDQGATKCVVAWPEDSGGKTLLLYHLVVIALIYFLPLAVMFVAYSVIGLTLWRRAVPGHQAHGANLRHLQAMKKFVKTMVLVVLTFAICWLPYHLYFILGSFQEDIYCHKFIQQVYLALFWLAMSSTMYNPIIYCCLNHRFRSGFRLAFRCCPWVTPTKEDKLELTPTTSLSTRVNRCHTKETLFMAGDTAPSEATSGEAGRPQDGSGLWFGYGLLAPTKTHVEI
Assay explanation: Signal transduction (ST), intracellular Ca++ FLIPR, NK2
Type: cell-based
Test settings: antagonist, Ca++ transient peak, read-out: NK2 pIC50 (converted)
Description: [The source words this procedure for another target and reports this target under the same test.] This test evaluates in vitro functional NK1 antagonistic activity. For the measurements of intracellular Ca^++ concentrations the cells were grown on 96-well (black wall/transparent bottom) plates from Costar for 2 days until they reached confluence. […] The cells were preincubated with a concentration range of antagonists for 20 min at RT and Ca^++-signals after addition of the agonists were measured in a Fluorescence Image Plate Reader (FLIPR from Molecular Devices, Crawley, England). […]
Measure name: IC50 (µM)

Here are 4 compounds together with their reported answers.
# Compound, System name, Unit name, IC50
records = [
    ("O=C(c1cccnc1)N1CCC(N2CCN(CC3(O)CCN(C(=O)c4cc(C(F)(F)F)cc(C(F)(F)F)c4)C(Cc4ccccc4)C3)CC2)C1 (stereo not drawn)", "NK2 (Homo sapiens, UniProt P21452)", "µM", 8.13),
    ("O=C(c1ccccc1)N1CCC(N2CCN(CC3(O)CCN(C(=O)c4cc(C(F)(F)F)cc(C(F)(F)F)c4)C(Cc4ccccc4)C3)CC2)C1 (stereo not drawn)", "NK2 (Homo sapiens, UniProt P21452)", "µM", 9.12),
    ("Cc1nnsc1C(=O)N1CCC(N2CCN(CC3(O)CCN(C(=O)c4cc(C(F)(F)F)cc(C(F)(F)F)c4)C(Cc4ccccc4)C3)CC2)C1 (stereo not drawn)", "NK2 (Homo sapiens, UniProt P21452)", "µM", 7.76),
    ("O=C(C1CCOC1)N1CCC(N2CCN(C(=O)[C@H]3CCN(C(=O)c4cc(C(F)(F)F)cc(C(F)(F)F)c4)[C@H](Cc4ccccc4)C3)CC2)CC1 (stereo partly drawn)", "NK2 (Homo sapiens, UniProt P21452)", "µM", 6.76),
]

[1] O=C(c1ccsc1)N1CCC(N2CCN(C[C@H]3CCN(C(=O)c4cc(C(F)(F)F)cc(C(F)(F)F)c4)[C@H](Cc4ccccc4)C3)CC2)C1 (stereo partly drawn)
[2] O=C(C1CC1)N1CCC(N2CCN(C(=O)[C@H]3CCN(C(=O)c4cc(C(F)(F)F)cc(C(F)(F)F)c4)[C@H](Cc4ccccc4)C3)CC2)CC1
## Task Among 1 and 2 , which shows a numerically higher IC50 result? Indicate which entry you chose by stating its label.
## Result 1
(1: 7.24 µM, 2: 4.68 µM)
